assayedTarget: T1, full length human tau protein 2N4R (hT40) (human, UniProt P10636 1-758)
T1 construct: recombinant; also called T441
T1 sequence (P10636 other isoform, or with tags, fused parts or gaps limits assumed): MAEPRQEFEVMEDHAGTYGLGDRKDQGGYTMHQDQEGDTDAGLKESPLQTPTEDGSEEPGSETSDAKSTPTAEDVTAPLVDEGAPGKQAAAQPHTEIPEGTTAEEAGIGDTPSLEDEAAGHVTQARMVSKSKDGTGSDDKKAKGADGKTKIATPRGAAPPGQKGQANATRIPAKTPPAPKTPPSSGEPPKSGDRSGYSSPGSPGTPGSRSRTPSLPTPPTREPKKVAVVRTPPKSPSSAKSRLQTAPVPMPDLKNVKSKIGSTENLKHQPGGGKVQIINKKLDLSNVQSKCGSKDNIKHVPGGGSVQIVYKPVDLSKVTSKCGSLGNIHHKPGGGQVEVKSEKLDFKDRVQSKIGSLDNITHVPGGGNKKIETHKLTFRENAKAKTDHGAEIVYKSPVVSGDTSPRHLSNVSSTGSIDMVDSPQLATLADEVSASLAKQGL
protocolDescription: SPR, scAb captured, tau analyte
Quick list: koff per entry.
// units = s⁻¹; emit number, no label

Past entries and their recorded results:
CE2 scAb (scFv, not shown: small tags and cut ends, scAb) scFv: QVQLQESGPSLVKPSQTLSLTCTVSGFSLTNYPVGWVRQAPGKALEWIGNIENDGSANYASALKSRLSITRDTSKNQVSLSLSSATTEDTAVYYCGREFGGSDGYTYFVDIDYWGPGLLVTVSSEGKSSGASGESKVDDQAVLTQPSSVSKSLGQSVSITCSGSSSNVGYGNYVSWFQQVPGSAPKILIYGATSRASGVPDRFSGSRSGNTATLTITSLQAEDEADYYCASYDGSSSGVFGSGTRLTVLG: 0.00108
3aB7 scAb (scFv, not shown: small tags and cut ends, scAb) scFv: QVQLQESGPSLVKPSQTLSLTCTVSGFSLTSNGVGWVRQAPGKVPEWVGDKSSAGKTYGNPALKSRLSITRDTSKSQVSLSLSSVTTEDTAVYYCVRCRDGGVTYGYDVDYWGPGLLVTVSSEGKSSGASGESKVDDQAVLTQPSSVSKSLGQSVSITCSGSSSNVGYGDVVSWFQQFPGSAPKLLIFGTTTRASGVPDRFSGSRSGNAATLTINSLQAEDEADYYCASFDSDSGGIAGSGTRLTVLG: 0.0143

Could you now consider this next binder?
*Q* Report koff for NS2A1 scAb (scFv, not shown: small tags and cut ends, scAb) scFv: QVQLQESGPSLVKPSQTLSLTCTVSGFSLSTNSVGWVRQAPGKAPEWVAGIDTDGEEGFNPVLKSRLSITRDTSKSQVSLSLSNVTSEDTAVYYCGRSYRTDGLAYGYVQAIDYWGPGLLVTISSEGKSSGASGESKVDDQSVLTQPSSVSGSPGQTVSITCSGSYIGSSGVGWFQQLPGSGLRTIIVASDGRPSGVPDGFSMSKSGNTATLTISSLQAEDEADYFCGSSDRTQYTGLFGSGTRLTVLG please.
*A* 0.000739

Value source: patent US20250355001A1
